Target: human OX2R (Homo sapiens)
Construct: expressed in transfected cells; host or cells: CHO (Chinese hamster ovary) cells grown under G418 selection
Sequence (O43614 1-444): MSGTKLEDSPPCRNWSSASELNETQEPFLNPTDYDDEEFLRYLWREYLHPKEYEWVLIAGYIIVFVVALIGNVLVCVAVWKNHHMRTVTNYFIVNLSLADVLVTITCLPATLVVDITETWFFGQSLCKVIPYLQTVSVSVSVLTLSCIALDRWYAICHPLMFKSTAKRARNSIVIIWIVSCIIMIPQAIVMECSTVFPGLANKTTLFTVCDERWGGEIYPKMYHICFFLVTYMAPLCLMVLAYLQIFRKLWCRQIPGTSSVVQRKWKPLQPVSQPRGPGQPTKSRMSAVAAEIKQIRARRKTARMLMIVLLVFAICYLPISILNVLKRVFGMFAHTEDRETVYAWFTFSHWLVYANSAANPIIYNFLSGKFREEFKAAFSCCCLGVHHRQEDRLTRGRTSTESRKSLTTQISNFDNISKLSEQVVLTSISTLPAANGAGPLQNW
Experiment: IPOne (IP-1 accumulation) assay in CHO cells expressing human OX2R
Format: cell-based
Settings: percent effect vs mean max effect of a reference compound at 1 uM (100% activity vs Orexin A), human OX2R
metric: % of maximum agonist effect (relative to Orexin A) (%)

Query: % of maximum agonist effect (relative to Orexin A); subject: `CCN(C(=O)N[C@@H](CCC(F)(F)F)C(F)(F)F)[C@H](C)c1cccc(-c2cc(OC)c3nc(Cl)cn3c2)c1`
Reply: 99.6

Query: `CCN(C(=O)N[C@@H](CCC(F)(F)F)C(F)(F)F)C(=C(F)F)c1cc(-c2cn3ccnc3c(OC)n2)c(OC)cn1` ?
Reply: 97.2

Query: `CCN(C(=O)N[C@H]1C[C@@]1(C)C(F)(F)F)[C@@H](c1cc(-c2cn3ccnc3c(OC)n2)c(OC)cn1)C(F)(F)F` ?
Reply: 99.3

Query: `CCN(C(=O)N[C@@H](CCC(F)(F)F)C(F)(F)F)[C@@H](c1cc(-c2cn3cc(C)nc3c(OC)n2)c(OC)cn1)C(F)(F)F` ?
Reply: 102.5

Query: `CCN(C(=O)N[C@@H](CCC(F)(F)F)C(F)(F)F)[C@H](C)c1cnc(OC)c(-c2cn3ccnc3c(OC)n2)c1` ?
Reply: 101.6

Query: CCN(C(=O)NC(C1CC(F)(F)CCO1)C(F)(F)F)[C@H](C)c1cccc(-c2cn3ccnc3c(OC)n2)c1 (some centres unmarked) ?
Reply: 101.6

Query: C#CC(CCC(F)(F)F)NC(=O)N(CC)[C@H](C)c1cccc(-c2cn3ccnc3c(OC)n2)c1 (some centres unmarked) ?
Reply: 100.1

Query: `CC[C@H](CCC(F)(F)F)NC(=O)N(CC)[C@H](C)c1cccc(-c2cc(C(F)F)c3nccn3c2)c1` ?
Reply: 86.1

Query: CCN(C(=O)NC(COC(=O)N(C)C)C(F)(F)F)[C@H](C)c1cccc(-c2cn3ccnc3c(OC)n2)c1 (single isomer, unassigned) ?
Reply: 95.3

Query: CCN(C(=O)N[C@@H](CCC(F)(F)F)C(F)(F)F)C(c1cc(-c2cc(OC)c3nccn3n2)c(OC)cn1)C(F)(F)F (some centres unmarked) ?
Reply: 100.8

Query: `CCN(C(=O)N[C@@H](CCC(F)(F)F)C(F)(F)F)[C@H](C)c1cc(-c2cn3ccnc3c(OC)n2)c(OC)cn1` ?
Reply: 100.1

Query: CCN(C(=O)N[C@@H](CCC(F)(F)F)C(F)(F)F)C(C)c1ccnc(-c2cn3ccnc3c(OC)n2)n1 (some centres unmarked) ?
Reply: 96.2

Query: CCN(C(=O)NC1CCC(C(F)(F)F)N(C)C1)[C@@H](c1cccc(-c2cn3ccnc3c(OC)n2)c1)C(F)(F)F (some centres unmarked) ?
Reply: 98.7

Query: `CCN(C(=O)N[C@@H](CCC(F)(F)F)C(F)(F)F)[C@@H](c1cc(-c2cn3ccnc3c(OC)n2)c(C)cn1)C(F)(F)F` ?
Reply: 100.9

Query: `CCN(C(=O)N[C@@H](CCC(F)(F)F)C(F)(F)F)[C@H](C)c1cc(-c2cn3ccnc3c(OC)n2)c(OC)nn1` ?
Reply: 101.7

Query: CCN(C(=O)NC(C1CC1)C(F)(F)F)C(c1cc(-c2cn3ccnc3c(OC)n2)c(OC)cn1)C(F)(F)F (centres unmarked) ?
Reply: 101.5

Query: `CCN(C(=O)N[C@@H](C(C)(C)C)C(F)(F)F)[C@@H](c1cc(-c2cn3ccnc3c(OC)n2)c(OC)cn1)C(F)(F)F` ?
Reply: 99.1

Query: `CCN(C(=O)N[C@@H]1C[C@@]1(C)C(F)(F)F)[C@@H](c1cc(-c2cn3ccnc3c(OC)n2)c(OC)cn1)C(F)(F)F` ?
Reply: 101.1

Query: CCN(C(=O)NC(CCC(C)=O)C(F)(F)F)[C@H](C)c1cccc(-c2cn3ccnc3c(OC)n2)c1 (some centres unmarked) ?
Reply: 99.4

Query: CCC(NC(=O)N(CC)[C@@H](c1cc(-c2cn3ccnc3c(OC)n2)c(OC)cn1)C(F)(F)F)C(F)F (some centres unmarked) ?
Reply: 98.5

Query: CCN(C(=O)N[C@@H](CCC(F)(F)F)C(F)(F)F)C(c1ccc(OC)c(-c2cn3ccnc3c(OC)n2)n1)C(F)(F)F (some centres unmarked) ?
Reply: 101.0

Query: CCN(C(=O)NC(CO)C(F)(F)F)[C@H](C)c1cccc(-c2cn3ccnc3c(OC)n2)c1 (single isomer, unassigned) ?
Reply: 96.3

Query: `CCN(C(=O)N[C@@H](CCC(F)(F)F)C(F)(F)F)[C@@H](c1cc(-c2cc(OC)c3ncn(C)c3c2)c(OC)cn1)C(F)(F)F` ?
Reply: 100.4

Query: `CCN(C(=O)N[C@@H](CCC(F)(F)F)C(F)(F)F)[C@@H](c1cc(-c2cn3ccnc3c(OC)n2)c(OC)cn1)C(F)(F)F` ?
Reply: 100.4

Query: CCN(C(=O)NC(C1CCOCC1)C(F)(F)F)[C@@H](c1cc(-c2cn3cc(C)nc3c(OC)n2)c(OC)cn1)C(F)(F)F (some centres unmarked) ?
Reply: 101.0

Query: `CCN(C(=O)N[C@@H](CCC(F)(F)F)C(F)(F)F)[C@H](C)c1cc(-c2cn3ccnc3c(OC)n2)ccn1` ?
Reply: 100.3
